# Test system: barnyardgrass (Echinochloa crus-galli)
# assayDetails: Test A postemergence, barnyardgrass
# Type: in vivo
# settings: 125 g ai/ha, postemergence; 0 to 100 scale, 0 is no effect, 100 is complete control; approximately 10 days
Measured Plant response rating, Barnyardgrass by item
Lab note: record the figure alone, no unit after it.

{"smilesString": "CCC(=O)COc1c(Br)cccc1Oc1ncc(Cl)cn1", "Plant response rating, Barnyardgrass": 20}

Switching to the query record.
Look up barnyardgrass (Echinochloa crus-galli) data: Plant response rating, Barnyardgrass of "FC(F)(F)CCCOc1c(Cl)cccc1Oc1ncc(Cl)cn1" , then report it. 30

###

# Tested on: blackgrass (Alopecurus myosuroides)
# assayDetails: Test A postemergence, blackgrass
# Type: in vivo
# settings: 125 g ai/ha, postemergence; 0 to 100 scale, 0 is no effect, 100 is complete control; approximately 10 days
Measured Plant response rating, Blackgrass by item
Lab note: record the figure alone, no unit after it.

State its Plant response rating, Blackgrass for this compound: "FC(F)COc1c(Br)cccc1Oc1ncc(Cl)cn1" 10

State its Plant response rating, Blackgrass for this compound: "FCCCOc1c(F)cccc1Oc1ncc(Cl)cn1" 0

###

# Test system: ragweed (common ragweed, Ambrosia elatior)
# assayDetails: Test A postemergence, ragweed
# Format: in vivo
# settings: 31 g ai/ha, postemergence; 0 to 100 scale, 0 is no effect, 100 is complete control; approximately 10 days
observationType: Plant response rating, Ragweed
Lab note: record the figure alone, no unit after it.

Example compounds with recorded Plant response rating, Ragweed:
{"smilesString": "FCCCOc1c(I)cccc1Oc1ncc(Cl)cn1", "resultValue": 0}
{"smilesString": "Cl/C=C/COc1c(Cl)cccc1Oc1ncc(Cl)cn1", "resultValue": 0}
{"smilesString": "CCCOc1c(C#N)cccc1Oc1ncc(Cl)cn1", "resultValue": 10}

State its Plant response rating, Ragweed for this compound: "Cc1cccc(Oc2ncc(Cl)cn2)c1OC/C=C/Cl" 0

State its Plant response rating, Ragweed for this compound: "FC(F)(F)/C=C/COc1c(Cl)cccc1Oc1ncc(Cl)cn1" 0

###

# Tested on: kochia (Kochia scoparia)
# assayDetails: Test A postemergence, kochia
# Assay type: in vivo
# settings: 125 g ai/ha, postemergence; 0 to 100 scale, 0 is no effect, 100 is complete control; approximately 10 days
Classification field: Fulfilled = Plant response rating, Kochia at or over 90; Not fulfilled = Plant response rating, Kochia under 90.

{"compound": "N#Cc1cccc(Oc2ncc(F)cn2)c1OCCC(F)(F)F [Compound 40]", "label": "Not fulfilled"}
{"compound": "CCCCCOc1c(C#N)cccc1Oc1ncc(Cl)cn1 [Compound 51]", "label": "Not fulfilled"}
{"compound": "Cl/C=C/COc1c(Cl)cccc1Oc1ncc(Cl)cn1 [Compound 48]", "label": "Fulfilled"}
{"compound": "N#CCCCOc1c(F)cccc1Oc1ncc(Cl)cn1 [Compound 24]", "label": "Not fulfilled"}
{"compound": "N#Cc1cccc(Oc2ncc(Cl)cn2)c1OCc1ccc(C(F)(F)F)cc1 [Compound 20]", "label": "Not fulfilled"}

Check this compound for Plant response rating, Kochia at or above 90: Cc1cccc(Oc2ncc(Cl)cn2)c1OCCCC(F)(F)F [Compound 55] Not fulfilled

Check this compound for Plant response rating, Kochia at or above 90: N#Cc1cccc(Oc2ncc(Cl)cn2)c1OC/C=C/Cl [Compound 7] Fulfilled

###

# System: galium (catchweed bedstraw, Galium aparine)
# assayDetails: Test A postemergence, galium
# Format: in vivo
# settings: 31 g ai/ha, postemergence; 0 to 100 scale, 0 is no effect, 100 is complete control; approximately 10 days
observationType: Plant response rating, Galium
Lab note: record the figure alone, no unit after it.

Look up galium (catchweed bedstraw, Galium aparine) data: Plant response rating, Galium of "N#Cc1cccc(Oc2ncc(Cl)cn2)c1OC/C=C/Cl" , then report it. 50

Look up galium (catchweed bedstraw, Galium aparine) data: Plant response rating, Galium of "FC(F)(F)/C=C/COc1c(I)cccc1Oc1ncc(Cl)cn1" , then report it. 20

Look up galium (catchweed bedstraw, Galium aparine) data: Plant response rating, Galium of "Cc1cccc(Oc2ncc(Cl)cn2)c1OC/C=C/Cl" , then report it. 90

Look up galium (catchweed bedstraw, Galium aparine) data: Plant response rating, Galium of "Cc1cccc(Oc2ncc(Cl)cn2)c1OCCC(F)(F)F" , then report it. 0

Look up galium (catchweed bedstraw, Galium aparine) data: Plant response rating, Galium of "N#Cc1cccc(Oc2ncc(Cl)cn2)c1OCC(=O)CCC(F)(F)F" , then report it. 0

###

Measured Plant response rating, Blackgrass by item
# Tested on: blackgrass (Alopecurus myosuroides)
# assayDetails: Test A postemergence, blackgrass
# Format: in vivo
# settings: 31 g ai/ha, postemergence; 0 to 100 scale, 0 is no effect, 100 is complete control; approximately 10 days
Lab note: record the figure alone, no unit after it.

Example compounds with recorded Plant response rating, Blackgrass:
{"compound": "N#Cc1cccc(Oc2ncc(F)cn2)c1OC/C=C/C(F)(F)F [Compound 39]", "resultValue": 10}
{"compound": "Cc1cccc(Oc2ncc(Cl)cn2)c1OCCC(F)(F)F [Compound 64]", "resultValue": 0}
{"compound": "Cc1cccc(Oc2ncc(Cl)cn2)c1OCCCC(F)(F)F [Compound 55]", "resultValue": 0}
{"compound": "FC(F)(F)C(F)(F)CCCOc1c(Br)cccc1Oc1ncc(Cl)cn1 [Compound 49]", "resultValue": 0}
{"compound": "N#Cc1cccc(Oc2ncc(Cl)cn2)c1OCc1ccc(Cl)cn1 [Compound 6]", "resultValue": 0}
{"compound": "N#CCCCOc1c(C#N)cccc1Oc1ncc(F)cn1 [Compound 37]", "resultValue": 0}
{"compound": "N#CCCCOc1c(C#N)cccc1Oc1ncc(Cl)cn1 [Compound 22]", "resultValue": 0}
{"compound": "N#Cc1cccc(Oc2ncc(Cl)cn2)c1OCCCCC(F)(F)F [Compound 32]", "resultValue": 30}
{"compound": "O=C(CCC(F)(F)F)COc1c(Br)cccc1Oc1ncc(Cl)cn1 [Compound 56]", "resultValue": 0}
{"compound": "Cc1cccc(Oc2ncc(Cl)cn2)c1OC/C=C/Cl [Compound 59]", "resultValue": 0}

State its Plant response rating, Blackgrass for this compound: N#Cc1cccc(Oc2ncc(F)cn2)c1OC/C=C/Cl [Compound 36] 10

State its Plant response rating, Blackgrass for this compound: FC(F)(F)CCCOc1c(Oc2ncc(Cl)cn2)cccc1C(F)(F)F [Compound 54] 0

State its Plant response rating, Blackgrass for this compound: N#Cc1cccc(Oc2ncc(F)cn2)c1OCCC(F)(F)F [Compound 40] 10

###

# Tested on: kochia (Kochia scoparia)
# assayDetails: Test A postemergence, kochia
# Type: in vivo
# settings: 500 g ai/ha, postemergence; 0 to 100 scale, 0 is no effect, 100 is complete control; approximately 10 days
observationType: Plant response rating, Kochia
Lab note: record the figure alone, no unit after it.

{"compound": "Fc1cccc(Oc2ncc(Cl)cn2)c1OCCC(F)(F)F", "observationType": "Plant response rating, Kochia", "resultValue": 80}
{"compound": "N#CCCCOc1c(F)cccc1Oc1ncc(Cl)cn1", "observationType": "Plant response rating, Kochia", "resultValue": 100}
{"compound": "N#Cc1cccc(Oc2ncc(Cl)cn2)c1OCC(F)F", "observationType": "Plant response rating, Kochia", "resultValue": 100}

State its Plant response rating, Kochia for this compound: "N#Cc1cccc(Oc2ncc(Cl)cn2)c1OCc1ccc(C(F)(F)F)cc1" 100

State its Plant response rating, Kochia for this compound: "FCCCOc1c(F)cccc1Oc1ncc(Cl)cn1" 90

State its Plant response rating, Kochia for this compound: "CC(C)CCCOc1c(Br)cccc1Oc1ncc(Cl)cn1" 90

State its Plant response rating, Kochia for this compound: "N#Cc1cccc(Oc2ncc(Cl)cn2)c1OCc1cccc(Cl)c1" 70

State its Plant response rating, Kochia for this compound: "Fc1cccc(Oc2ncc(Cl)cn2)c1OC/C=C/C(F)(F)F" 100

State its Plant response rating, Kochia for this compound: "N#Cc1cccc(Oc2ncc(Cl)cn2)c1OCc1ccccc1Cl" 40

State its Plant response rating, Kochia for this compound: "FC(F)(F)c1ccc(COc2c(Br)cccc2Oc2ncc(Cl)cn2)cc1" 50

State its Plant response rating, Kochia for this compound: CC(COc1c(C#N)cccc1Oc1ncc(Cl)cn1)CC(F)(F)F (stereo not drawn) 100

State its Plant response rating, Kochia for this compound: "Fc1cccc(Oc2ncc(Cl)cn2)c1OCCCC(F)(F)F" 100

State its Plant response rating, Kochia for this compound: "CC(C)CCOc1c(Br)cccc1Oc1ncc(Cl)cn1" 100

State its Plant response rating, Kochia for this compound: "N#Cc1cccc(Oc2ncc(Cl)cn2)c1OCc1ccc(Cl)cc1" 90

State its Plant response rating, Kochia for this compound: "Fc1cccc(Oc2ncc(Cl)cn2)c1OC/C=C/Cl" 100

State its Plant response rating, Kochia for this compound: "FC(F)COc1c(Br)cccc1Oc1ncc(Cl)cn1" 100

State its Plant response rating, Kochia for this compound: "FC(F)C(F)(F)C(F)(F)C(F)(F)COc1c(Br)cccc1Oc1ncc(Cl)cn1" 100

State its Plant response rating, Kochia for this compound: "N#Cc1cccc(Oc2ncc(Cl)cn2)c1OCC(F)(F)C(F)F" 100

meta.source: patent US10485235B2
